Origin of measurements: paper PMC3376652

# assay system: gp120 from the YU2 strain (Human immunodeficiency virus type 1 group M subtype B, UniProt P35961)
# measurement description: Isothermal titration calorimetry of binding to full-length gp120
# condition label: KD, Table 2; ITC, 25 °C, PBS pH 7.4, 2% DMSO
measured attribute: Kd (nM)
Just the number in nM, nothing appended.

# get_value(readout='Kd', item= N[C@@H]1Cc2ccccc2[C@H]1NC(=O)C(=O)Nc1ccc(Cl)c(F)c1 [(−)-6] )
1200

---

# System: recombinant HIV-1YU2 on Cf2Th-CCR5 cells
# measurement description: Activation of viral infectivity in CD4-negative Cf2Th-CCR5 cells
# Type: cell-based
# condition label: Table 2; Cf2Th-CCR5 cells, relative to 4
Marks after values point to notes of the source that are not given here.
measured attribute: Activation of Viral Infectivity

Worked examples, 3 molecules total:
>>> recorded_measurement("N=C(N)N[C@@H]1Cc2ccccc2[C@H]1NC(=O)C(=O)Nc1ccc(Cl)c(F)c1.O=CO [(−)-12]")
"0.0 ± 0.0 (4)^j (relative to 4)"
>>> recorded_measurement("N[C@H]1Cc2ccccc2[C@@H]1NC(=O)C(=O)Nc1ccc(Cl)c(F)c1 [(+)-6]")
"1.4 ± 0.5 (relative to 4)"
>>> recorded_measurement("N[C@@H]1Cc2ccccc2[C@H]1NC(=O)C(=O)Nc1ccc(Cl)c(F)c1 [(−)-6]")
"1.0 ± 0.3 (relative to 4)"

Kindly review the next molecule as well.
Tell me the measured Activation of Viral Infectivity of N=C(N)N[C@H]1Cc2ccccc2[C@@H]1NC(=O)C(=O)Nc1ccc(Cl)c(F)c1.O=CO [(+)-12] , please.
0.1 ± 0.0 (19)^j (relative to 4)

---

# assay system: gp120 from the YU2 strain (Human immunodeficiency virus type 1 group M subtype B, UniProt P35961)
# measurement description: Isothermal titration calorimetry of binding to full-length gp120
# Set-up: species or system HIV-1
# condition label: Table 2; ITC, 25 °C
# ΔH per entry
Dear colleague, please return just the value in kcal/mol, with no unit written.

Some solved entries appear below for comparison.
>>> recorded_measurement("N=C(N)N[C@@H]1Cc2ccccc2[C@H]1NC(=O)C(=O)Nc1ccc(Cl)c(F)c1.O=CO [(−)-12]")
-19.4
>>> recorded_measurement("N[C@@H]1Cc2ccccc2[C@H]1NC(=O)C(=O)Nc1ccc(Cl)c(F)c1 [(−)-6]")
-19.5
>>> recorded_measurement("N[C@H]1Cc2ccccc2[C@@H]1NC(=O)C(=O)Nc1ccc(Cl)c(F)c1 [(+)-6]")
-15.4

Note: attention shifts to another entry.
Param item = N=C(N)N[C@H]1Cc2ccccc2[C@@H]1NC(=O)C(=O)Nc1ccc(Cl)c(F)c1.O=CO [(+)-12] ; retrieve measured ΔH.
-14.9

---

# assay system: gp120 from the YU2 strain (Human immunodeficiency virus type 1 group M subtype B)
# measurement description: Isothermal titration calorimetry of binding to full-length gp120
# Design: species or system HIV-1
# condition label: Table 2; calculated from KD, 25 °C
ΔG values for the compounds below.

Examples from the recorded data:
>>> recorded_measurement("N=C(N)N[C@@H]1Cc2ccccc2[C@H]1NC(=O)C(=O)Nc1ccc(Cl)c(F)c1.O=CO [(−)-12]")
"-9.0 kcal/mol"
>>> recorded_measurement("N[C@H]1Cc2ccccc2[C@@H]1NC(=O)C(=O)Nc1ccc(Cl)c(F)c1 [(+)-6]")
"-7.9 kcal/mol"
>>> recorded_measurement("N[C@@H]1Cc2ccccc2[C@H]1NC(=O)C(=O)Nc1ccc(Cl)c(F)c1 [(−)-6]")
"-8.1 kcal/mol"

Could you now consider this next compound?
What reported ΔG corresponds to N=C(N)N[C@H]1Cc2ccccc2[C@@H]1NC(=O)C(=O)Nc1ccc(Cl)c(F)c1.O=CO [(+)-12] on gp120 from the YU2 strain (Human immunodeficiency virus type 1 group M subtype B)?
-9.0 kcal/mol
